- experiment: Ocular tissue distribution and pharmacokinetics, 7.5 and 15 mg/kg oral, pigmented Dutch Belted rabbits (Example 7)
- Format: in vivo
- measurement-conditions: Dutch Belted, rabbit, choroid-RPE, oral, […], DB rabbits, Day 15, […] BID, 24 hr; read-out: Mean Choroid-RPE Concentration
value-kind: concentration at 24 h (ng/g)
A number alone suffices; assume ng/g.

Quick one: concentration at 24 h for CC(=O)c1nn(CC(=O)N2C[C@H](F)C[C@H]2C(=O)Nc2cccc(Br)n2)c2ccc(-c3cnc(C)nc3)cc12 ? 685

====

- experiment: Ocular tissue and plasma pharmacokinetics, 50 mg/kg BID oral, Dutch Belted rabbits (Example 4/5)
- Type: in vivo
- measurement-conditions: male, Dutch Belted, po; Choroid-RPE, DB rabbit, 50 mg/kg BID, Day 15
value-kind: Tmax
# do not omit the unit; it follows the number

Quick one: Tmax for CC(=O)c1nn(CC(=O)N2C[C@H](F)C[C@H]2C(=O)Nc2cccc(Br)n2)c2ccc(-c3cnc(C)nc3)cc12 ? 1 h

====

- experiment: Ocular tissue distribution and pharmacokinetics, 7.5 and 15 mg/kg oral, pigmented Dutch Belted rabbits (Example 7)
- Type: in vivo
- measurement-conditions: Dutch Belted, rabbit, choroid-RPE, oral, […], DB rabbits, Day 1, […] single dose, 96 hr; read-out: Mean Choroid-RPE Concentration
value-kind: concentration at 96 h (ng/g)
A number alone suffices; assume ng/g.

Quick one: concentration at 96 h for CC(=O)c1nn(CC(=O)N2C[C@H](F)C[C@H]2C(=O)Nc2cccc(Br)n2)c2ccc(-c3cnc(C)nc3)cc12 ? 28.4

====

- experiment: Ocular tissue distribution and pharmacokinetics, 15 mg/kg BID oral, nonpigmented New Zealand White rabbits (Example 7)
- Type: in vivo
- measurement-conditions: New Zealand White, rabbit, iris-ciliary body, oral; NZW rabbits, Day 15, 15 mg/kg BID, 24 hr; read-out: Mean Iris-Ciliary Concentration
value-kind: concentration at 24 h (ng/g)
A number alone suffices; assume ng/g.

Quick one: concentration at 24 h for CC(=O)c1nn(CC(=O)N2C[C@H](F)C[C@H]2C(=O)Nc2cccc(Br)n2)c2ccc(-c3cnc(C)nc3)cc12 ? 1.6

====

- experiment: Ocular tissue and plasma pharmacokinetics, 15 mg/kg oral, New Zealand White rabbits (Example 3/5)
- Assay type: in vivo
- measurement-conditions: New Zealand White, po; plasma, NZW rabbit, 15 mg/kg single dose, Day 1
value-kind: Cmax (ng/mL)
A number alone suffices; assume ng/mL.

Quick one: Cmax for CC(=O)c1nn(CC(=O)N2C[C@H](F)C[C@H]2C(=O)Nc2cccc(Br)n2)c2ccc(-c3cnc(C)nc3)cc12 ? 310

====

- experiment: Ocular tissue and plasma pharmacokinetics, 15 mg/kg single and BID oral, Dutch Belted rabbits (Example 3/5)
- Type: in vivo
- measurement-conditions: Dutch Belted, rabbit, retina, po, 15 mg/kg, DB rabbit, 15 mg/kg single oral dose, Day 1, 1 h; read-out: Mean retina concentration
value-kind: concentration at 1 h (ng/g)
A number alone suffices; assume ng/g.

Quick one: concentration at 1 h for CC(=O)c1nn(CC(=O)N2C[C@H](F)C[C@H]2C(=O)Nc2cccc(Br)n2)c2ccc(-c3cnc(C)nc3)cc12 ? 145

====

- experiment: Ocular tissue distribution and pharmacokinetics, 15 mg/kg BID oral, nonpigmented New Zealand White rabbits (Example 7)
- Format: in vivo
- measurement-conditions: New Zealand White, rabbit, iris-ciliary body (ICB); ICB (OU), male NZW rabbits, Group 4, Day 15, 15 mg/kg/dose BID oral (30 mg/kg/day); read-out: Cmax
- Description: For Groups 2 through 4, blood (approximately 2 mL) was collected via a jugular vein using a syringe and needle and was transferred into tubes containing K2EDTA at approximately 12 hours after the a.m. dose on Day 15 from the two animals designated for sacrifice at approximately 240 hours after the a.m. dose on Day 15. […]
value-kind: Cmax (ng/g)
A number alone suffices; assume ng/g.

Quick one: Cmax for CC(=O)c1nn(CC(=O)N2C[C@H](F)C[C@H]2C(=O)Nc2cccc(Br)n2)c2ccc(-c3cnc(C)nc3)cc12 [Compound 1] ? 64.9

====

- experiment: Ocular tissue distribution and pharmacokinetics, 7.5 and 15 mg/kg oral, pigmented Dutch Belted rabbits (Example 7)
- Assay type: in vivo
- measurement-conditions: male, Dutch Belted, rabbit, retina, oral, […] BID, DB rabbits, Day 15, […] BID, 24 hr; read-out: Mean Retina Concentration
value-kind: concentration at 24 h
# do not omit the unit; it follows the number

Quick one: concentration at 24 h for CC(=O)c1nn(CC(=O)N2C[C@H](F)C[C@H]2C(=O)Nc2cccc(Br)n2)c2ccc(-c3cnc(C)nc3)cc12 [Compound 1] ? 44.3 ng/g

====

- experiment: Ocular tissue and plasma pharmacokinetics, 15 mg/kg single and BID oral, Dutch Belted rabbits (Example 3/5)
- Type: in vivo
- measurement-conditions: Dutch Belted, rabbit, iris-ciliary body, po, 15 mg/kg, Iris-Ciliary Body, DB rabbit, 15 mg/kg BID, Day 15
value-kind: half-life (h)
A number alone suffices; assume h.

Quick one: half-life for CC(=O)c1nn(CC(=O)N2C[C@H](F)C[C@H]2C(=O)Nc2cccc(Br)n2)c2ccc(-c3cnc(C)nc3)cc12 ? 107

====

- experiment: Ocular tissue and plasma pharmacokinetics, 50 mg/kg BID oral, Dutch Belted rabbits (Example 4/5)
- Assay type: in vivo
- measurement-conditions: male, Dutch Belted, rabbit, iris-ciliary body, po, 50 mg/kg, DB rabbit, 50 mg/kg BID oral, Day 15, 0 h; read-out: Mean Iris-Ciliary Body concentration
value-kind: concentration at 0 h

Quick one: concentration at 0 h for CC(=O)c1nn(CC(=O)N2C[C@H](F)C[C@H]2C(=O)Nc2cccc(Br)n2)c2ccc(-c3cnc(C)nc3)cc12 [Compound 1] ? 5080 ng/g

====

- experiment: Ocular tissue and plasma pharmacokinetics, 15 mg/kg single and BID oral, Dutch Belted rabbits (Example 3/5)
- Assay type: in vivo
- measurement-conditions: Dutch Belted, rabbit, retina, po, 15 mg/kg, DB rabbit, 15 mg/kg BID oral, Day 15, 1 h; read-out: Mean retina concentration
value-kind: concentration at 1 h
# do not omit the unit; it follows the number

Quick one: concentration at 1 h for CC(=O)c1nn(CC(=O)N2C[C@H](F)C[C@H]2C(=O)Nc2cccc(Br)n2)c2ccc(-c3cnc(C)nc3)cc12 ? 576 ng/g

====

- experiment: Ocular tissue and plasma pharmacokinetics, 15 mg/kg single and BID oral, Dutch Belted rabbits (Example 3/5)
- Assay type: in vivo
- measurement-conditions: Dutch Belted, rabbit, choroid-RPE, po, 15 mg/kg, DB rabbit, 15 mg/kg BID oral, Day 15, 96 h; read-out: Mean Choroid-RPE concentration
value-kind: concentration at 96 h (ng/g)
A number alone suffices; assume ng/g.

Quick one: concentration at 96 h for CC(=O)c1nn(CC(=O)N2C[C@H](F)C[C@H]2C(=O)Nc2cccc(Br)n2)c2ccc(-c3cnc(C)nc3)cc12 ? 866

====

- experiment: Ocular tissue distribution and pharmacokinetics, 15 mg/kg BID oral, nonpigmented New Zealand White rabbits (Example 7)
- Format: in vivo
- measurement-conditions: New Zealand White, rabbit; Retina (OU), male NZW rabbits, Group 4, Day 15, 15 mg/kg/dose BID oral (30 mg/kg/day)
value-kind: Tmax (h)
A number alone suffices; assume h.

Quick one: Tmax for CC(=O)c1nn(CC(=O)N2C[C@H](F)C[C@H]2C(=O)Nc2cccc(Br)n2)c2ccc(-c3cnc(C)nc3)cc12 ? 1

====

- experiment: Ocular tissue distribution and pharmacokinetics, 7.5 and 15 mg/kg oral, pigmented Dutch Belted rabbits (Example 7)
- Assay type: in vivo
- measurement-conditions: male, Dutch Belted, rabbit, retina, oral, […], DB rabbits, Day 1, […] single dose, 12 hr; read-out: Mean Retina Concentration
value-kind: concentration at 12 h (ng/g)
A number alone suffices; assume ng/g.

Quick one: concentration at 12 h for CC(=O)c1nn(CC(=O)N2C[C@H](F)C[C@H]2C(=O)Nc2cccc(Br)n2)c2ccc(-c3cnc(C)nc3)cc12 ? 16.5

====

- experiment: Ocular tissue distribution and pharmacokinetics, 7.5 and 15 mg/kg oral, pigmented Dutch Belted rabbits (Example 7)
- Assay type: in vivo
- measurement-conditions: Dutch Belted, rabbit, plasma, oral, 15 mg/kg, DB rabbits, Day 15, 15 mg/kg BID, 24 hr; read-out: Mean Plasma Concentration
value-kind: concentration at 24 h (ng/mL)
A number alone suffices; assume ng/mL.

Quick one: concentration at 24 h for CC(=O)c1nn(CC(=O)N2C[C@H](F)C[C@H]2C(=O)Nc2cccc(Br)n2)c2ccc(-c3cnc(C)nc3)cc12 ? 10.5

====

- experiment: Ocular tissue and plasma pharmacokinetics, 15 mg/kg single and BID oral, Dutch Belted rabbits (Example 3/5)
- Assay type: in vivo
- measurement-conditions: Dutch Belted, rabbit, choroid-RPE, oral, 15 mg/kg, DB rabbits, Day 1, 15 mg/kg single dose, 6 hr; read-out: Mean Choroid-RPE Concentration
value-kind: concentration at 6 h (ng/g)
A number alone suffices; assume ng/g.

Quick one: concentration at 6 h for CC(=O)c1nn(CC(=O)N2C[C@H](F)C[C@H]2C(=O)Nc2cccc(Br)n2)c2ccc(-c3cnc(C)nc3)cc12 [Compound 1] ? 866

meta.source: patent US20230126447A1
